# ASSAYED_TARGET: Receptor tyrosine-protein kinase erbB-2 (Homo sapiens, UniProt P04626)
# Sequence (P04626 whole entry): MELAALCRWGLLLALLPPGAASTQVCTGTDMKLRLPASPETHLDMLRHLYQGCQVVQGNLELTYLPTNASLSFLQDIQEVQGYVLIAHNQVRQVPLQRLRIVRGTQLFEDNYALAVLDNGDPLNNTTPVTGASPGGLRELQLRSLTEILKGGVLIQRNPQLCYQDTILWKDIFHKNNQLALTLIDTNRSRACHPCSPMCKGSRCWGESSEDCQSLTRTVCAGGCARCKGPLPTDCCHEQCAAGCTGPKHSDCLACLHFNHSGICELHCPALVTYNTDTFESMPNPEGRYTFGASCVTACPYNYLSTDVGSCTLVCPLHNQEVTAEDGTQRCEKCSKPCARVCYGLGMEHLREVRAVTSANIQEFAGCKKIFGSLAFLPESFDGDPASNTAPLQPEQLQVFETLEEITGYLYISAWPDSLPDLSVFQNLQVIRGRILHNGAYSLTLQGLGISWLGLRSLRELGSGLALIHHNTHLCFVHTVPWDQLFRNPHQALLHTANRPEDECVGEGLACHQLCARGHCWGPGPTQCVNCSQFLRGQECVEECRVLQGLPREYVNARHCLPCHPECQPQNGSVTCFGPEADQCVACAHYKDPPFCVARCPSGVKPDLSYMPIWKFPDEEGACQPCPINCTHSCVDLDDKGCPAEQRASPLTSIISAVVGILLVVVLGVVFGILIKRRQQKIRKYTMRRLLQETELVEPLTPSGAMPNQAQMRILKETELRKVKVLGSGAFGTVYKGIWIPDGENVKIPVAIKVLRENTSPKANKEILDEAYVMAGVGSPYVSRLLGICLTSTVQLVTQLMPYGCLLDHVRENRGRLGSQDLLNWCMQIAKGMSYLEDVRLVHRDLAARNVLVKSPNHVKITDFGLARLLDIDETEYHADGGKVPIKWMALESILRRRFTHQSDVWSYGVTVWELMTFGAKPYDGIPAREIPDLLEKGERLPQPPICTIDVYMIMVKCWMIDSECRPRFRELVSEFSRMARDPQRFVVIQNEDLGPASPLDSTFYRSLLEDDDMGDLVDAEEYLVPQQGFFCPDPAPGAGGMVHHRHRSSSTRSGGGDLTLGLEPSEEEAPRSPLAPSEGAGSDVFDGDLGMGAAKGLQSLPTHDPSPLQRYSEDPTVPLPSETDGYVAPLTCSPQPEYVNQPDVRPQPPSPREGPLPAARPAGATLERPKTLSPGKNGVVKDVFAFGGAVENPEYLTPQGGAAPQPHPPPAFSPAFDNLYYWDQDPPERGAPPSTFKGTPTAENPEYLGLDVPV
# ASSAY_SUMMARY: Pseudo-irreversible inhibition of N-terminus peptide-tagged human recombinant HER2 expressed using baculovirus infection system using [gamma-33P]-ATP preincubated with compound for 5 mins at 10 times IC50 concentration measured after 10 mins by scintillation counting
Active and inactive are the calls of the source. The rule behind the calls is not given here.
Return exactly one item of active, inactive

>  <SMILES_RECORD>
O=C1Cc2cccc(Oc3ccc(Nc4ncnc5ccn(CCO)c45)cc3Cl)c2N1

>  <CLASS_LABEL>
active

$$$$

### Prompt Which outcome did this test record for the compound OCCn1ccc2ncnc(Nc3ccc(Oc4cccc5[nH]ncc45)c(Cl)c3)c21 ?
### Response active

### Prompt Now consider OCCn1ccc2ncnc(Nc3ccc(Oc4cccc5sncc45)c(Cl)c3)c21 .
### Response active

### Prompt Now consider O=C1Cc2ccc(Oc3ccc(Nc4ncnc5ccn(CCO)c45)cc3Cl)cc2N1 .
### Response inactive

### Prompt Now consider O=C1NCc2ccc(Oc3ccc(Nc4ncnc5ccn(CCO)c45)cc3Cl)cc21 .
### Response active

### Prompt Now consider OCCn1ccc2ncnc(Nc3ccc(Oc4cccc5sccc45)c(Cl)c3)c21 .
### Response active
